B1: TMEM106C (parent)
chain: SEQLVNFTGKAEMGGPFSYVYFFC

- Variants of: B1
- Test: protein stability index of a GFP-peptide fusion (GPS, HEK-293T) (PSI 1-6); higher = more stable;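 note: lentivirally expressed fusions sorted by FACS into six bins by GFP to DsRed ratio, PSI derived from sequencing read proportions per bin multiplied by bin number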
- Run conditions: c terminus: a fixed tail appended
For each entry below, report its protein stability index value.
Numbers only.

# Change, protein stability index
measured = [
    ("N6Y", 2.19),
    ("Y19L", 2.89),
    ("V5N", 2.58),
    ("F17R", 3.07),
    ("L4P", 2.07),
    ("F17S", 2.5),
]

Okay, here is my list. What is protein stability index for each of these?
1. F17N
2. F17W
3. G9I
4. A11K
5. F17A

[2.93, 3.31, 2.8, 3.7, 2.55]

Okay, here is my list. What is protein stability index for each of these?
1. N6A
2. G9Q
3. Y19V
4. G9D
5. S18Y
6. T8A
7. T8V

[2.28, 2.71, 3.9, 2.19, 2.04, 3.06, 2.92]

Okay, here is my list. What is protein stability index for each of these?
1. M13G
2. P16V
3. S1N
4. P16Q
5. E2Y
6. F17P
7. E2K

1. 2.77
2. 2.47
3. 2.85
4. 2.58
5. 2
6. 1.84
7. 2.29
